// data source = ChEMBL document CHEMBL2069169

List of IC50 values.
# system-tested: Phosphodiesterase 6
# assay-method-text: Inhibition of PDE6
# Format: protein assay, Homo sapiens

IN: Jot down IC50 (Phosphodiesterase 6) of COc1cc(F)c2nnc3c(C)nc(-c4ccccc4OC)n3c2c1 .
OUT: > 1000 nM

IN: Provide Phosphodiesterase 6 IC50 reading for COc1cc(F)cc2c1nnc1c(C)nc(-c3c(C)nn(C)c3C)n12 .
OUT: > 5000 nM

----------
# system-tested: Phosphodiesterase 6
# assay-method-text: Inhibition of PDE6
# Assay type: protein assay, Homo sapiens
quantity-name: IC50 (nM)

Please review the following examples before continuing.
IN: Look up IC50 of COc1ccc2nnc3c(C)nc(-c4ccc(F)cc4C)n3c2n1 and report it.
OUT: 1150

IN: Item COc1cc(OC)c2nnc3c(C)nc(-c4cccnc4C)n3c2c1 : provide IC50
OUT: 493

IN: Give IC50 for COc1cc(F)c2nnc3c(C)nc(-c4sccc4C)n3c2c1
OUT: 1230

IN: Look up IC50 of COc1cc(C(F)(F)F)cc2c1nnc1c(C)nc(-c3cccc(F)c3C)n12 and report it.
OUT: 1260

IN: // Input: COc1cc(OC(F)F)cc2c1nnc1c(C)nc(-c3ccncc3C)n12 . Output its IC50 only.
OUT: 909

1 = COc1cccc2c1nnc1c(C)nc(-c3ccccc3Cl)n12
2 = COc1cc(N2CCOCC2)cc2c1nnc1c(C)nc(-c3ccccc3C)n12
3 = COc1cc(C(F)(F)F)cc2c1nnc1c(C)nc(-c3ccncc3C)n12
IN: # rank_down: sort by IC50, max first Reply with the labels, ordered as the question asks.
OUT: 3, 1, 2
(3: 1790 nM, 1: 1060 nM, 2: 693 nM)
